- Tested on: MS2 coat protein
- Protocol Summary: apparent KD of MS2 coat protein, switch ON state; designed switch direction (-1 OFF switch, 1 ON switch): -1; higher = weaker reporter binding
- Test Conditions: FMN input: 0 or 200 uM; Eterna round: R93 (includes R88 designs)
Test Readout: apparent KD of MS2 coat protein (nM)
Provide only the numeric value, understood in nM.

Worked examples, 5 sequences total:
Ordered Residues	apparent KD of MS2 coat protein (nM)
AAAGACAGAGGAUAUACAUGAGGAUCACCCAUGUGGCGAAAAAAAAUCCAUUUGGCAUGUAGAAGGCUGUAUGA [Orerzadi]	66.9
GGUUGGCGAGGAUAUACAUGAGGAUCACCCAUGUGAGAGAAAAAAGUGAGUAAGAAAAGUAGAAGGCGCUGACG [salish99-ex3-33]	49.9
AACUAGUCAGGAUAUACGAACAUGUCAAAAAACAUAAAGGGACAUGAGGAUCACCCAUGUAGAAGGGACUAGCA [74%, Web mod - With 4 less G's]	161
AAGAACUGAGGAUAUACUUUGGGAAAAGAAAAGAUGAUGUUACAUGAGGAUCACCCAUGUAGAAGGCAGAAGAA [Mat - Exclusion 2 - Mod - D153]	27
AAGAAGCAAGGAUAUACAUGAGGAUCACCCAUGUAAAAGAAAGAGGGAAAAGAGAAAAGUAGAAGGUGCAAGAA [Ptolemy VI Philometor]	22.6

INPUT: Which apparent KD of MS2 coat protein value belongs to CUCAAGUGAGGAUAUCAGUAGUAAAAAAAUAAAAUUACUACUGAGAAGGCACAUGAGGAUCACCCAUGUGCAAA [EX4 336: Super Stable 36] ?
OUTPUT: 19.6

INPUT: Would you kindly share the measured apparent KD of MS2 coat protein for CGCAAGUCAGGAUAUUCGACAAGUAAAUCAGUAGAUCAGAAGAAGAAGGGACAUGAGGAUCACCCAUGUAAGUA [JR_Exc004_Sub404] ?
OUTPUT: 29.1

INPUT: May I ask what apparent KD of MS2 coat protein has been recorded for AAUAAGUGAGGAUAUCGAAGACUGUCGAAAAGACAGUCGAACGAGAAGGCACAUGAGGAUCACCCAUGUGAGGG [Mat - Exaclusion 4 - Eli mod - D69] ?
OUTPUT: 130

INPUT: Please give the measured apparent KD of MS2 coat protein for this sequence: AGAAAACAUGAGGAUCACCCAUGUCAGGAUAUCCAAAUAAAAAUAAAAUAAAAUAAAAGGAGAAGGGACAAAAG [May 1]
OUTPUT: 49.2
